The reader will find reported GI50 values listed item by item below.
target-desc: Ba/F3 EGFR-D770-N771ins_SVD (Homo sapiens, UniProt P00533, DUP768-770, cells depend on it)
Sequence (P00533 with tags, fused parts or gaps DUP768-770): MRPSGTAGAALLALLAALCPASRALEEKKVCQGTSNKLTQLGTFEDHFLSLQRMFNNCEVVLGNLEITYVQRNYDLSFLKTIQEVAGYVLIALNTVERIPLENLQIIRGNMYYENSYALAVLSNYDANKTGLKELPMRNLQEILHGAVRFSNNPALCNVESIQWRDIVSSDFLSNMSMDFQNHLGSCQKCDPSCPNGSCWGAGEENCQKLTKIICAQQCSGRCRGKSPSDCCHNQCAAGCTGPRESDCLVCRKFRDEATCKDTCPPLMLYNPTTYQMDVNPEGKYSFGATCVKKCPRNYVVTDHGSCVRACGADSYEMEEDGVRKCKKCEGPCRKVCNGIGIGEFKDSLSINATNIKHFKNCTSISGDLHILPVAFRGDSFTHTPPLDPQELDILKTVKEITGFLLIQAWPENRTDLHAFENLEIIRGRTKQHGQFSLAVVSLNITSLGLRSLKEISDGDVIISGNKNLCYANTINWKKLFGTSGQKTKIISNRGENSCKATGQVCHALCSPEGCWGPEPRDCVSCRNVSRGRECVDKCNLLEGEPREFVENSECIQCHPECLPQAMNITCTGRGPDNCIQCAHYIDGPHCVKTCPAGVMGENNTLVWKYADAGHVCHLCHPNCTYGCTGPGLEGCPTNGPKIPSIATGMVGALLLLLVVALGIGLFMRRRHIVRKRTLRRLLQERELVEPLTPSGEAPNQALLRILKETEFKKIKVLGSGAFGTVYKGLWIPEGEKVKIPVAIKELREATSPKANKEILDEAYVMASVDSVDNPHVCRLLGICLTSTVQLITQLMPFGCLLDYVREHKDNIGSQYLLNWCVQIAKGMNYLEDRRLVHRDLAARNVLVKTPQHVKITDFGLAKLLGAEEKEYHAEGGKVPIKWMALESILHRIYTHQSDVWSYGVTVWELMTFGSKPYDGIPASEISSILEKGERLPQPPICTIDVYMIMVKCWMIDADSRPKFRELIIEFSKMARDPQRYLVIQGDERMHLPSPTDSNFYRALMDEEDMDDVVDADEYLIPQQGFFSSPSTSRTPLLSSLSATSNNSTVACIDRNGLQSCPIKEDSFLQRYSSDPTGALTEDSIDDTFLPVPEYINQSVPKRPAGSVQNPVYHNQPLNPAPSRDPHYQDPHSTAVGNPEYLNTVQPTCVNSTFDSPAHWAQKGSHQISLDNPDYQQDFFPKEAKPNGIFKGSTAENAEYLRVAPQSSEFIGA
measurement-protocol: Proliferation experiment of Ba/F3 cell line, EGFR-D770-N771ins_SVD (CellTiter-Glo)
Type: cell-based
condition-details: cultured for 72 hrs with compound, CTG analysis, read-out: Ba/F3 EGFR-D770-N771ins_SVD IC50
Just the number please, in nM, no unit attached.

Examples with their reported GI50 follow.
C=CC(=O)Nc1cc2c(Nc3cccc(-n4nccn4)c3)ncnc2cc1OCCN1CCOCC1
67.9
C=C(F)C(=O)Nc1cc2c(Nc3ccnc(-c4ccccc4F)c3)ncnc2cc1OC
3.3
C=CC(=O)Nc1cc2c(Nc3ccnc(-c4ccccc4F)c3)ncnc2cc1O[C@@H]1CCN(C2CCN(C)CC2)C1
3
C=CC(=O)Nc1cc2c(Nc3ccnc(-c4ccccc4F)c3)ncnc2cc1O[C@@H]1CCN(CCOC)C1
1.8
C=CC(=O)Nc1cc2c(Nc3cccc(-c4c(F)cccc4F)c3)ncnc2cc1OCCCN1CC[C@H](N(C)C)C1
26.8
C=CC(=O)Nc1cc2c(Nc3ccc(F)c(-c4ccccn4)c3)ncnc2cc1OCCCN1CCOCC1
28.6

As a next step, examine the compound that follows.
Task item: Observed GI50 on Ba/F3 EGFR-D770-N771ins_SVD (Homo sapiens, UniProt P00533, DUP768-770, cells depend on it) for C=CC(=O)Nc1cc2c(Nc3cncc(-c4c(F)cccc4F)c3)ncnc2cc1OCCCN1CCN(C)CC1 , please.
Reply: 11

All figures here come from patent US12649727B2.
